Hello, the source for this data is patent US9187480B2, in case you need it.

# system.tested: CB2 (Homo sapiens (Human))
# Sequence (P34972 whole entry): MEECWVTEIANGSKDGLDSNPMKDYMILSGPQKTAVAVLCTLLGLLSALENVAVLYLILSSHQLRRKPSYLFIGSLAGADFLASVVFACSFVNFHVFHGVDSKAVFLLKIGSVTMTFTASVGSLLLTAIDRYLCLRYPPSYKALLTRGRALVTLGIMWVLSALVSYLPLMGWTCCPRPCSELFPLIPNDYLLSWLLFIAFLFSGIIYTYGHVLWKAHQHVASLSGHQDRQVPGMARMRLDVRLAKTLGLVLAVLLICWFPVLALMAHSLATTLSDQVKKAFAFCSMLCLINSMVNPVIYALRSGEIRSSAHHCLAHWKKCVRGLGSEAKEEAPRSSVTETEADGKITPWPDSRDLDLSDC
# protocol.details: Displacement of [3H]CP55940 in membranes of CHO-K1 cells over-expressing CB2
# Assay type: binding
# assay.setup: radioligand [3H]CP55940, CHO-K1 membranes; read-out: Ki (nM) v. [3H]CP55940 at CB2
// reported log10 Ki per item
value.type: log10 Ki (log10 of the value in nM)

| compound | log10 Ki |
| --- | --- |
| CC(C)CC(=O)NC1CCN(c2ncnc3c2nc(-c2ccccc2Cl)n3-c2ccc(Cl)cc2)CC1 | 1.95 |
| CC(C)CCC(=O)NC1CCN(c2ncnc3c2nc(-c2ccccc2Cl)n3-c2ccc(Cl)cc2)CC1 | 2.33 |
| CS(=O)(=O)NCC1CCC(CNc2ncnc3c2nc(-c2ccccc2Cl)n3-c2ccc(Cl)cc2)CC1 (centres unmarked) | 3.35 |
| CCCCC(=O)NC1CCN(c2ncnc3c2nc(-c2ccccc2Cl)n3-c2ccc(Cl)cc2)CC1 [drawing 78] | 3.02 |
| NS(=O)(=O)NCC1CCC(CNc2ncnc3c2nc(-c2ccccc2Cl)n3-c2ccc(Cl)cc2)CC1 (centres unmarked) | 4.03 |
| CC(=O)NC1(c2ccccc2)CCN(c2ncnc3c2nc(-c2ccccc2Cl)n3-c2ccc(Cl)cc2)CC1 | 2.86 |
| CCNC(=O)NC1(c2ccccc2)CCN(c2ncnc3c2nc(-c2ccccc2Cl)n3-c2ccc(Cl)cc2)CC1 | 3.67 |
| CS(=O)(=O)NC1(c2ccccc2)CCN(c2ncnc3c2nc(-c2ccccc2Cl)n3-c2ccc(Cl)cc2)CC1 | 2.98 |
| CC(C)(C)NC(=O)NC1(c2ccccc2)CCN(c2ncnc3c2nc(-c2ccccc2Cl)n3-c2ccc(Cl)cc2)CC1 | 4.30 |
| O=C(CC1CCCCC1)NC1CCN(c2ncnc3c2nc(-c2ccccc2Cl)n3-c2ccc(Cl)cc2)CC1 | 3.37 |
| O=C(NC1CCN(c2ncnc3c2nc(-c2ccccc2Cl)n3-c2ccc(Cl)cc2)CC1)C1CCCCC1 | 2.92 |
| O=C(NC1CCN(c2ncnc3c2nc(-c2ccccc2Cl)n3-c2ccc(Cl)cc2)CC1)c1ccccc1 | 4.03 |
| CC(C)(C)OC(=O)N1CCC(Nc2ncnc3c2nc(-c2ccccc2Cl)n3-c2ccc(Cl)cc2)CC1 | 4.13 |
| O=C(NC1CCN(c2ncnc3c2nc(-c2ccccc2Cl)n3-c2ccc(Cl)cc2)CC1)C1CCCC1 | 1.78 |
| O=S1(=O)CCN(c2ncnc3c2nc(-c2ccccc2Cl)n3-c2ccc(Cl)cc2)CC1 | 2.92 |
| CC(C)(C)OC(=O)NC1(c2ccccc2)CCN(c2ncnc3c2nc(-c2ccccc2Cl)n3-c2ccc(Cl)cc2)CC1 | 4.14 |
| O=C(CC1CCCC1)NC1CCN(c2ncnc3c2nc(-c2ccccc2Cl)n3-c2ccc(Cl)cc2)CC1 | 2.76 |
